# System: replicon cells (1b-Con1)
# assaySummary: Replicon activity assay (replicon RNA level by real-time RT-PCR, Taqman)
# Assay type: cell-based
# conditions: Hepatitis C virus, HCV replicon genotype 1b; read-out: EC50 (1b) Range
pEC50: −log10 of the molar value.
Each entry below carries its reported pEC50.

{"compound": "COC(=O)N[C@H](CO[P@@]1(=O)OC[C@H]2O[C@@H](n3ccc(=O)[nH]c3=O)[C@](C)(C#N)[C@@H]2O1)C(=O)OC(C)C [Compound 41A]", "pEC50": "< 5.00"}
{"compound": "C#C[C@]1(C)[C@@H]2O[P@@](=O)(OCC[C@H](OC(C)=O)C(=O)OC(C)C)OC[C@H]2O[C@H]1n1ccc(=O)[nH]c1=O [Compound 51A]", "pEC50": "5.00 to 6.00"}
{"compound": "CC(C)OC(=O)COCCO[P@@]1(=O)OC[C@H]2O[C@@H](n3ccc(=O)[nH]c3=O)[C@](C)(N)[C@@H]2O1 [Compound 69A]", "pEC50": "< 5.00"}
{"compound": "C#C[C@]1(C)[C@@H]2O[P@](=O)(OCCC(C)(C)C(=O)OC(C)C)OC[C@H]2O[C@H]1n1ccc(=O)[nH]c1=O [Compound 20B]", "pEC50": "< 5.00"}
{"compound": "CC(C)OC(=O)[C@@H](C)CCO[P@]1(=O)OC[C@H]2O[C@@H](n3cnc4c(N)ncnc43)[C@](C)(C#N)[C@@H]2O1 [Compound 71B]", "pEC50": "5.00 to 6.00"}
{"compound": "COC(=O)N[C@H](CO[P@]1(=O)OC[C@H]2O[C@@H](n3ccc(=O)[nH]c3=O)[C@](C)(C#N)[C@@H]2O1)C(=O)OC(C)C [Compound 41B]", "pEC50": "< 5.00"}
{"compound": "CCC(CCO[P@]1(=O)OC[C@H]2O[C@@H](n3ccc(=O)[nH]c3=O)[C@](C)(N)[C@@H]2O1)C(=O)OC1CCCC1 (stereo partly drawn) [Compound 25B]", "pEC50": "< 5.00"}
{"compound": "C#C[C@@]1(O)[C@@H]2O[P@@](=O)(OCCC(C(=O)OC(C)C)C(=O)OC(C)C)OC[C@H]2O[C@H]1n1ccc(=O)[nH]c1=O [Compound 59A]", "pEC50": "6.00 to 6.60"}
{"compound": "C#C[C@]1(C)[C@@H]2O[P@@](=O)(OCC[C@@H](OC(C)=O)C(=O)OC(C)C)OC[C@H]2O[C@H]1n1ccc(=O)[nH]c1=O [Compound 50A]", "pEC50": "< 5.00"}
{"compound": "CC(C)OC(=O)[C@@H](C)CCO[P@]1(=O)OC[C@H]2O[C@@H](n3cnc4c(N)ncnc43)[C@](C)(N)[C@@H]2O1 [Compound 73B]", "pEC50": "5.00 to 6.00"}
{"compound": "C#C[C@]1(C)[C@@H]2O[P@@](=O)(OCC[C@@H](OC)C(=O)OC(C)C)OC[C@H]2O[C@H]1n1ccc(=O)[nH]c1=O [Compound 57A]", "pEC50": "5.00 to 6.00"}
{"compound": "C#C[C@]1(C)[C@@H]2O[P@](=O)(OC[C@H](F)CC(=O)OC(C)C)OC[C@H]2O[C@H]1n1ccc(=O)[nH]c1=O [Compound 66B]", "pEC50": "6.00 to 6.60"}
{"compound": "CC(C)OC(=O)[C@@H](C)CCO[P@@]1(=O)OC[C@H]2O[C@@H](n3cc(F)c4c(N)ncnc43)[C@](C)(Cl)[C@@H]2O1 [Compound 82A]", "pEC50": "< 5.00"}
{"compound": "C#C[C@]1(C)[C@@H]2O[P@@](=O)(OC[C@H](F)CC(=O)OC(C)C)OC[C@H]2O[C@H]1n1ccc(=O)[nH]c1=O [Compound 66A]", "pEC50": "< 5.00"}
{"compound": "CC(C)OC(=O)C(C)CCOP1(=O)OC[C@H]2O[C@@H](n3ccc(=O)[nH]c3=O)[C@](C)(Cl)[C@@H]2O1 (stereo partly drawn) [Compound 39A]", "pEC50": "≥ 6.60"}
{"compound": "C#C[C@]1(C)[C@@H]2O[P@@](=O)(OCCC(CC)C(=O)OC3CCCC3)OC[C@H]2O[C@H]1n1ccc(=O)[nH]c1=O (stereo partly drawn) [Compound 30A]", "pEC50": "< 5.00"}
{"compound": "C[C@@]1(N)[C@@H]2O[P@@](=O)(OCCC3CCOC3=O)OC[C@H]2O[C@H]1n1ccc(=O)[nH]c1=O (stereo partly drawn) [Compound 46A]", "pEC50": "< 5.00"}
{"compound": "C#C[C@]1(C)[C@@H]2O[P@](=O)(OCC[C@H](C)C(=O)OC(C)C)OC[C@H]2O[C@H]1n1cnc2c(N)ncnc21 [Compound 72B]", "pEC50": "6.00 to 6.60"}
{"compound": "C#C[C@]1(C)[C@@H]2O[P@@](=O)(OCC(C)CCC(=O)OC(C)C)OC[C@H]2O[C@H]1n1ccc(=O)[nH]c1=O (stereo partly drawn) [Compound 22A]", "pEC50": "< 5.00"}
{"compound": "CC(=O)O[C@@H](CO[P@]1(=O)OC[C@H]2O[C@@H](n3ccc(=O)[nH]c3=O)[C@](C)(N)[C@@H]2O1)[C@@H](OC(C)=O)C(=O)OC(C)C [Compound 54B]", "pEC50": "< 5.00"}
{"compound": "CC(C)OC(=O)C(CCO[P@]1(=O)OC[C@H]2O[C@@H](n3ccc(=O)[nH]c3=O)[C@](C)(N)[C@@H]2O1)C(C)C (stereo partly drawn) [Compound 24B]", "pEC50": "< 5.00"}
{"compound": "C#C[C@]1(C)[C@@H]2O[P@@](=O)(OC[C@H](NC(=O)OC)C(=O)OC(C)C)OC[C@H]2O[C@H]1n1ccc(=O)[nH]c1=O [Compound 40A]", "pEC50": "< 5.00"}
{"compound": "CO[C@H](CO[P@@]1(=O)OC[C@H]2O[C@@H](n3ccc(=O)[nH]c3=O)[C@](C)(N)[C@@H]2O1)[C@@H](OC)C(=O)OC(C)C [Compound 48A]", "pEC50": "< 5.00"}
{"compound": "C#C[C@]1(C)[C@@H]2O[P@@](=O)(OC[C@H](CC(=O)OC(C)C)OC)OC[C@H]2O[C@H]1n1ccc(=O)[nH]c1=O [Compound 60A]", "pEC50": "< 5.00"}

----------
Each entry below carries its reported CC50.
# Test system: replicon cells
# assaySummary: Cytotoxicity MTS assay (CellTiter 96 Aqueous One Solution) in replicon cells
# Assay type: cell-based
# conditions: EDU; read-out: CC50 (EDU) Range

{"compound": "CC(C)OC(=O)[C@@H](C)CCOP1(=O)OC[C@H]2O[C@@H](n3cnc4c(N)ncnc43)[C@](C)(Cl)[C@@H]2O1 (single isomer, unassigned)", "CC50": "> 50 µM"}
{"compound": "C#C[C@@]1(O)[C@@H]2OP(=O)(OCCC(C)C(=O)OC3CCCC3)OC[C@H]2O[C@H]1n1ccc(=O)[nH]c1=O (single isomer, unassigned) [Compound 8B1]", "CC50": "> 50 µM"}
{"compound": "CC(C)OC(=O)C(C)CCOP1(=O)OC[C@H]2O[C@@H](n3ccc(=O)[nH]c3=O)[C@](C)(N)[C@@H]2O1 (single isomer, unassigned) [Compound 10B]", "CC50": "> 50 µM"}

----------
# System: replicon cells (1b-Con1)
# assaySummary: Replicon activity assay (replicon RNA level by real-time RT-PCR, Taqman)
# Format: cell-based
# conditions: Hepatitis C virus, HCV replicon genotype 1b; read-out: EC50 (1b) Range
pEC50: −log10 of the molar value.
Each entry below carries its reported pEC50.

{"compound": "CC(C)OC(=O)C(C)(C)CCO[P@@]1(=O)OC[C@H]2O[C@@H](n3ccc(=O)[nH]c3=O)[C@](C)(N)[C@@H]2O1 [Compound 19A]", "targetUnderTest": "replicon cells (1b-Con1)", "pEC50": "< 5.00"}
{"compound": "C#C[C@]1(C)[C@@H]2O[P@](=O)(OCCOCC(=O)OC(C)C)OC[C@H]2O[C@H]1n1ccc(=O)[nH]c1=O [Compound 68B]", "targetUnderTest": "replicon cells (1b-Con1)", "pEC50": "5.00 to 6.00"}
{"compound": "CO[C@@H](CO[P@]1(=O)OC[C@H]2O[C@@H](n3ccc(=O)[nH]c3=O)[C@](C)(N)[C@@H]2O1)CC(=O)OC(C)C [Compound 63B]", "targetUnderTest": "replicon cells (1b-Con1)", "pEC50": "< 5.00"}

----------
# System: replicon cells (1b-Con1)
# assaySummary: Replicon activity assay (replicon RNA level by real-time RT-PCR, Taqman)
# Format: cell-based
# conditions: Hepatitis C virus, HCV replicon genotype 1b; read-out: EC50 (1b) Range
pEC50: −log10 of the molar value.
Each entry below carries its reported pEC50.

{"compound": "CO[C@H](CCO[P@@]1(=O)OC[C@H]2O[C@@H](n3ccc(=O)[nH]c3=O)[C@](C)(N)[C@@H]2O1)C(=O)OC(C)C [Compound 45A]", "pEC50": "5.00 to 6.00"}
{"compound": "CC(C)OC(=O)C(C)(C)CO[P@]1(=O)OC[C@H]2O[C@@H](n3ccc(=O)[nH]c3=O)[C@](C)(N)[C@@H]2O1 [Compound 15B]", "pEC50": "< 5.00"}
{"compound": "CC(=O)O[C@H](CO[P@]1(=O)OC[C@H]2O[C@@H](n3ccc(=O)[nH]c3=O)[C@](C)(N)[C@@H]2O1)CC(=O)OC(C)C [Compound 52B]", "pEC50": "< 5.00"}
